- TEST_PROTOCOL: self-splicing fitness, log relative to wild type (ln ratio); higher = more splicing; Tetrahymena group I intron in knt gene, E. coli kanamycin selection, DiMSum; sequences stand for … in CUCUCU…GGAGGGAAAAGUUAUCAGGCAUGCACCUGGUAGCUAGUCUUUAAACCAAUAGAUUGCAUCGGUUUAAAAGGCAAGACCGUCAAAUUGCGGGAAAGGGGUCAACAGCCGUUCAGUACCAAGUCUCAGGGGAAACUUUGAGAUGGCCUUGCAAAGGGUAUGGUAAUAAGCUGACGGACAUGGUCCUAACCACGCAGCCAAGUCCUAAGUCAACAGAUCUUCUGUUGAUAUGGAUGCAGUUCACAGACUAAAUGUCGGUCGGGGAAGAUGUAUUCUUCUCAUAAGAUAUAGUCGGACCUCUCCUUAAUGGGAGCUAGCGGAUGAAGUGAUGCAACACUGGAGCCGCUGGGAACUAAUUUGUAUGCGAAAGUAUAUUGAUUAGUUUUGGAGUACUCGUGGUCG;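 further: selection with 25 µg/mL kanamycin versus none on LB agar overnight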
- EXPERIMENTAL_SETUP: 30 °C
Could you label it rule met if measured self-splicing fitness (ln) is -2 or higher, and rule not met otherwise?

Please review the following examples before continuing.
GCGGAGCAAUAUUACGCCGU rule met
GGACAGCAAUAUUACGCGGG rule not met
CCCGAGCAAUAUUACGACAA rule not met
AACGAGCAAUAUUACGACAA rule not met
ACUCAGCAAUAUUACGAACC rule met

Inquiry: Please tell me: is the sequence "UCUGAGCAAUAUUACGUAUA" at or over -2 in terms of self-splicing fitness (ln)?
Reply text: rule not met

Inquiry: Please tell me: is the sequence "GAUUAGCAAUAUUACGAUCG" at or over -2 in terms of self-splicing fitness (ln)?
Reply text: rule met

Inquiry: Please tell me: is the sequence "ACGGAGCAAUAUUACGCAGG" at or over -2 in terms of self-splicing fitness (ln)?
Reply text: rule met

---

Below: a set of entries, each annotated with reported self-splicing fitness (ln).
- TEST_PROTOCOL: self-splicing fitness, log relative to wild type (ln ratio); higher = more splicing; Tetrahymena group I intron in knt gene, E. coli kanamycin selection, DiMSum; sequences stand for … in CUCUCU…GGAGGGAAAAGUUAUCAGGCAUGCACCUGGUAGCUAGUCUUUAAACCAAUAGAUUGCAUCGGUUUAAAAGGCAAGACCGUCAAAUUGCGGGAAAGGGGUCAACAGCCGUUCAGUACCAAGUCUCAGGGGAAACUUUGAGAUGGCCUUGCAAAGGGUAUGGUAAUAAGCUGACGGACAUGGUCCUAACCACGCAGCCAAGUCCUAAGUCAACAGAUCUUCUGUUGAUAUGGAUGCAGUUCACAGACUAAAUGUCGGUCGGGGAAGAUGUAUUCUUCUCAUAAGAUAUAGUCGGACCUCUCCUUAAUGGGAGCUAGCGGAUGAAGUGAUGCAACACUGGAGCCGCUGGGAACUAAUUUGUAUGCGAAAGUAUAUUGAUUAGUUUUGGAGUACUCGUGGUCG
- EXPERIMENTAL_SETUP: 37 °C

GCCAAGCAAUAUUACGACGU 0.0827
GUCGAGCAAUAUUACGUAUC -1.42
UUAAAGCAAUAUUACGCAAG 0.145
ACUUAGCAAUAUUACGGAAC -1.07
CCAUAGCAAUAUUACGCUAG -1.82
AGUGAGCAAUAUUACGUUUA -2.04
CAGCAGCAAUAUUACGGAUU -1.64

Now for a further sequence.
Inquiry: Recorded self-splicing fitness (ln) of "UUGAAGCAAUAUUACGCCCA" , please.
Reply text: 0.296
